experimental details: qHTS assay to identify small molecule HDAC inhibitors - cell viability counter screen (AID 1259365); further: nearly all actives have a fitted effect of over 50% in size
setup conditions: HCT-116 viability, CellTiter-Glo ATP luminescence, 2 h; series mostly up to 92.4 µM
The source made the active and inactive calls. The call rests on the fitted dose curve; in most records, active means well fitted cell-killing curve with a large enough effect in the repeat runs; inconclusive means weak or mixed curves, or effect the other way; inactive means flat fitted curve, though single readings scatter.
Field 'call' accepts active, inactive

For this molecule, state the assay outcome: `CN(C)[C@@H]1C(=O)C(C(N)=O)=C(O)[C@@]2(O)C(=O)C3=C(O)c4c(O)ccc(Cl)c4[C@@](C)(O)[C@H]3C[C@@H]12` inactive

Okay, and CCOP(=O)(NC(C)C)Oc1ccc(SC)c(C)c1 (stereo not drawn) ? inactive

---

target under test: Peroxisome proliferator-activated receptor gamma (Homo sapiens) (UniProt P37231)
Sequence (P37231 whole entry, looked up): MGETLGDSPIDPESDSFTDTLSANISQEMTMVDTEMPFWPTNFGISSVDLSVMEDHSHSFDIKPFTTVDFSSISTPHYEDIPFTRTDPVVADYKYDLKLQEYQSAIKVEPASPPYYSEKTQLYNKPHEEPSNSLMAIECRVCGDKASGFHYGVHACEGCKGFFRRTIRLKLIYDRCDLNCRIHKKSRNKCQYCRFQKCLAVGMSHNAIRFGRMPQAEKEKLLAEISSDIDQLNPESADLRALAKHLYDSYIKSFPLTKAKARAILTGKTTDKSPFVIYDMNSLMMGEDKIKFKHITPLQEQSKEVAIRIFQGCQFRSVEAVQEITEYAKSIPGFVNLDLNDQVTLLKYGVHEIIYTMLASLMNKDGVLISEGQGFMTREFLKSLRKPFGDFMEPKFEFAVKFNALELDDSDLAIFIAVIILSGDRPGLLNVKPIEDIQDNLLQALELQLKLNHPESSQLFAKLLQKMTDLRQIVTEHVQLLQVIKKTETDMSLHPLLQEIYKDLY
experimental details: qHTS assay to identify small molecule antagonists of the peroxisome proliferator-activated receptor gamma (PPARg) signaling pathway (AID 743191); further: nearly all actives have a fitted effect of over 30% in size
setup conditions: HEK293H PPARg-UAS-bla, beta-lactamase ratio, antagonist, 17 h; series mostly up to 62.6 µM
Description: U.S. Tox21 Program National Center for Advancing Translational Sciences [NCATS] NIH Chemical Genomics Center [NCGC] U.S. Environmental Protection Agency [EPA] National Institutes of Environmental Health Sciences [NIEHS] National Toxicology Program [NTP] U.S. Food and Drug Administration [FDA] […]
Records with an inconclusive call do not appear. The source made the active and inactive calls. Calls come from the whole dose curve.
Field 'call' accepts T = active, F = inactive

For this compound, state the assay outcome: `COc1cccc(C(=O)CCN[C@@H](C)[C@H](O)c2ccccc2)c1` F

---

experimental details: qHTS RealTime-Glo MT Cell Viability Assay in HepG2 cells - 16 hour (AID 1224885); further: nearly all actives have a fitted effect of over 50% in size
setup conditions: RealTime-Glo luminescence; series mostly up to 76.8 µM
Results filed as inconclusive are left out. Active and inactive are the calls of the source. The call rests on the fitted dose curve; in most records, active means well fitted cell-killing curve with a large enough effect in the repeat runs; inconclusive means weak or mixed curves; inactive means flat fitted curve, though single readings scatter.
Field 'call' accepts active, inactive

CC(C)C1CCC(Cc2ccc(Cl)cc2)C1(O)Cn1cncn1 (configuration not stated); active

For this compound, state the assay outcome: `N#C/C=C/c1ccccc1` inactive

Okay, and `CN(CCCC(=O)c1cccnc1)N=O` ? inactive

Okay, and `Fc1cccc(Cl)c1CCl` ? inactive

Okay, and O=C1c2ccccc2C(=O)C1C(=O)C(c1ccccc1)c1ccc(Cl)cc1 (configuration not stated) ? inactive

Okay, and CN(CCCC(O)c1cccnc1)N=O (configuration not stated) ? inactive

Okay, and CC(C)[C@H](C(=O)OC(C#N)c1cccc(Oc2ccccc2)c1)c1ccc(OC(F)F)cc1 (some centres not stated) ? inactive

Okay, and `O=C(CBr)c1ccc(O)cc1` ? inactive

Okay, and `[Cl][Sn]([c]1ccccc1)([c]1ccccc1)[c]1ccccc1` ? active

Okay, and `Fc1ccc(Oc2ccnc3cc(Cl)cc(Cl)c23)cc1` ? inactive

Okay, and `CC(c1ccc(O)cc1)c1ccc(O)cc1` ? inactive

Okay, and `CN(C)[C@@H]1C(=O)C(C(N)=O)=C(O)[C@@]2(O)C(=O)C3=C(O)c4c(O)ccc(Cl)c4[C@@](C)(O)[C@H]3C[C@@H]12` ? inactive

---

experimental details: A CellTox Green Cytotoxicity Assay to monitor cytotoxicity in HepG2 cells - 24 hour (AID 1224878); further: nearly all actives have a fitted effect of over 45% in size
setup conditions: CellTox Green fluorescence; series mostly up to 76.8 µM
Records with an inconclusive call do not appear. Activity calls are given as the source filed them. The call rests on the fitted dose curve; in most records, active means well fitted activation curve with a large enough effect in the repeat runs; inconclusive means weak or mixed curves; inactive means flat fitted curve, though single readings scatter.
Field 'call' accepts active, inactive

// below: answered molecules
O=C(O)C1C2CCC(O2)C1C(=O)O (stereo unspecified); inactive
Oc1ccc(C2(c3ccc(O)cc3)c3ccccc3-c3ccccc32)cc1; active
COc1ccc(OC)c(C=O)c1; inactive
C[C@@H]1O[C@@H](O[C@H]2C[C@@H](O)[C@]3(CO)[C@H]4[C@H](O)C[C@]5(C)[C@@H](C6=CC(=O)OC6)CC[C@]5(O)[C@@H]4CC[C@]3(O)C2)[C@H](O)[C@H](O)[C@H]1O; inactive
CC(C)C(=O)Cl; inactive

For this molecule, state the assay outcome: `Oc1c(Br)c(Br)c(Br)c(Br)c1Br` inactive

Okay, and COC(=O)N(C(=O)N1COC2(C(=O)OC)Cc3cc(Cl)ccc3C2=N1)c1ccc(OC(F)(F)F)cc1 (stereo unspecified) ? inactive

Okay, and `Cc1c(Cl)c(=O)oc2cc(OP(=O)(OCCCl)OCCCl)ccc12` ? inactive

Okay, and `NC(=O)c1ccc(N)nc1` ? inactive

Okay, and `CC(C)OC(=S)S` ? inactive

Okay, and `Nc1c(Oc2ccccc2)cc(O)c2c1C(=O)c1ccccc1C2=O` ? inactive

---

experimental details: qHTS assay to identify small molecule antagonists of the estrogen receptor alpha (ER-alpha) signaling pathway using the BG1 cell line - cell viability counter screen (AID 743081);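 further: compound given together with 17beta-estradiol as the ER stimulus; nearly all actives have a fitted effect of over 45% in size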
setup conditions: BG1Luc4E2 viability, CellTiter-Fluor, 22 h; series mostly up to 70.3 µM
Results filed as inconclusive are left out. Active and inactive are the calls of the source. Calls come from the whole dose curve; as a rule, active = well fitted cell-killing curve with a large enough effect in the repeat runs; inconclusive = weak or mixed curves, or effect the other way; inactive = flat fitted curve, though single readings scatter.
Field 'call' accepts true (1) = active, false (0) = inactive

Clc1ccc(C(c2ccccc2Cl)C(Cl)(Cl)Cl)cc1 (stereo not drawn); false (0)
Oc1ccc(C(c2ccc(O)cc2)(C(F)(F)F)C(F)(F)F)cc1; false (0)
Fc1ccc(Oc2ccnc3cc(Cl)cc(Cl)c23)cc1; false (0)
CCOP(=S)(OCC)OC(Cl)C(Cl)(Cl)Cl (stereo not drawn); false (0)
Clc1ccc(CO/N=C(\Cn2ccnc2)c2ccc(Cl)cc2Cl)c(Cl)c1; false (0)

For this molecule, state the assay outcome: ClC1=C(Cl)C2(Cl)C3C(Cl)C=CC3C1(Cl)C2(Cl)Cl (stereo not drawn) false (0)

Okay, and `COC(=O)N(C(=O)N1CO[C@@]2(C(=O)OC)Cc3cc(Cl)ccc3C2=N1)c1ccc(OC(F)(F)F)cc1` ? false (0)

Okay, and `CC(C)(C)c1ccc(CSc2cnn(C(C)(C)C)c(=O)c2Cl)cc1` ? true (1)

---

experimental details: qHTS assay to identify small molecule antagonists of the peroxisome proliferator-activated receptor gamma (PPARg) signaling pathway - cell viability counter screen (AID 743194); further: nearly all actives have a fitted effect of over 55% in size
setup conditions: PPARg-bla HEK293H viability, CellTiter-Glo luminescence, 17 h; co-treated with 50 nM rosiglitazone unless noted; series mostly up to 62.6 µM
Inconclusive results are not listed. Active and inactive are the calls of the source. Calls follow the shape of the dose curve; as a rule, active = well fitted cell-killing curve with a large enough effect in the repeat runs; inconclusive = weak or mixed curves, or effect the other way; inactive = no such curve, though single readings can be large or run the other way.
Field 'call' accepts active, inactive

Nc1ccccc1C(=O)Oc1ccc2ccccc2c1; inactive
Cc1cc(C(F)(C(F)(F)F)C(F)(F)F)ccc1NC(=O)c1cccc(I)c1C(=O)NC(C)(C)CS(C)(=O)=O; inactive
CCCCCCCCCCCCCC[P+](CCCCCC)(CCCCCC)CCCCCC (tested in a mixture with another compound); active

For this compound, state the assay outcome: `BrCBr` inactive

Okay, and `CC(C)CCCCCCCOP(=O)(Oc1ccccc1)Oc1ccccc1` ? inactive

Okay, and `c1ccc2c(c1)[nH]c1cnccc12` ? inactive

---

target under test: Acetylcholinesterase (Homo sapiens)
experimental details: Acetylcholinesterase (AChE) small molecule antagonists: fluorescence cell-based qHTS assay (AID 1347398); further: nearly all actives have a fitted effect of over 50% in size
setup conditions: SH-SY5Y cells; AChE activity; series mostly up to 115 µM
Inconclusive results are not listed. The source made the active and inactive calls. Calls follow the shape of the full dose curve.
Field 'call' accepts class 1 = active, class 0 = inactive

COP(=O)(CCC(=O)NCO)OC; class 0
CCOCn1c(-c2ccc(Cl)cc2)c(C#N)c(Br)c1C(F)(F)F; class 0
Nc1ccc(Sc2ccc(N)cc2)cc1; class 0
C[C@H]1O[C@@H](O[C@H]2[C@@H](O)C[C@H](O[C@H]3[C@@H](O)C[C@H](O[C@H]4CC[C@@]5(C)[C@H](CC[C@@H]6[C@@H]5CC[C@]5(C)[C@@H](C7=CC(=O)OC7)CC[C@]65O)C4)O[C@@H]3C)O[C@@H]2C)C[C@H](O)[C@@H]1O; class 0
CN(CCCC(=O)c1cccnc1)N=O; class 0

For this compound, state the assay outcome: CC1CCC(C(C)C)C(OC(=O)c2ccccc2N)C1 (stereo unspecified) class 0

---

experimental details: qHTS RealTime-Glo MT Cell Viability Assay in HepG2 cells - 32 hour (AID 1224877); further: nearly all actives have a fitted effect of over 55% in size
setup conditions: RealTime-Glo luminescence; series mostly up to 76.8 µM
Records with an inconclusive call do not appear. Calls of active or inactive are those of the source. Calls follow the shape of the dose curve; as a rule, active = well fitted cell-killing curve with a large enough effect in the repeat runs; inconclusive = weak or mixed curves; inactive = flat fitted curve, though single readings scatter.
Field 'call' accepts yes for active, no for inactive

// below: answered molecules
CC(C)(O)c1cnn2c(-c3ccc(F)c(-c4c(F)cccc4C#N)c3)cnc2n1; no
Cn1[nH]nnc1=S; no
N#CCCSCCC#N; no

For this molecule, state the assay outcome: `[CH3][Hg][Cl]` yes

Okay, and `CCN` ? no

Okay, and `CC(=O)[O-].[Tl+]` ? no

Okay, and `Nc1ccccc1C(=O)Oc1ccc2ccccc2c1` ? no

Okay, and `CCCN(CCC)c1c([N+](=O)[O-])cc(S(N)(=O)=O)cc1[N+](=O)[O-]` ? yes

Okay, and `BrC(Br)Br` ? no

Okay, and `CC[C@H]1C[C@@H]2C[C@H]3c4[nH]c5ccc(OC)cc5c4CCN(C2)[C@@H]13` ? no

Okay, and `Oc1ccc(C(=C(Cl)Cl)c2ccc(O)cc2)cc1` ? no

Okay, and `O=C/C(Cl)=C(/Cl)C(=O)O` ? no

Okay, and `Cc1cc(SCc2sc(-c3ccc(C(F)(F)F)c(F)c3)nc2C)ccc1OCC(=O)O` ? no

Okay, and `N#C/C=C/c1ccccc1` ? no

Okay, and `CCc1nn(C)c(C(=O)NCc2ccc(C(C)(C)C)cc2)c1Cl` ? no

Okay, and `CC(c1ccc(O)cc1)c1ccc(O)cc1` ? no

Okay, and `COP(=O)(CCC(=O)NCO)OC` ? no

Okay, and `CCCCCCCCCCCCBr` ? no

Okay, and `CCCCCCCCCCBr` ? no

Okay, and C[C@H]1CC[C@@H]2[C@@H](C)[C@H]3[C@H](C[C@H]4[C@@H]5CC=C6CC(O[C@@H]7O[C@H](CO)[C@H](O)[C@H](O[C@@H]8O[C@H](CO)[C@@H](O)[C@H](O)[C@H]8O)[C@H]7O[C@H]7O[C@@H](C)[C@H](O)[C@@H](O)[C@H]7O)CC[C@]6(C)[C@H]5CC[C@]34C)N2C1 (stereo partly specified) ? yes

Okay, and `Clc1ccc(Oc2ccccc2)cc1` ? no

Okay, and CC(Cc1ccc(C(C)(C)C)cc1)CN1C[C@@H](C)O[C@@H](C)C1 (stereo partly specified) ? no

Okay, and `CCCCCCCCCCCCCCCCCCn1cc[n+](C)c1` ? yes

Okay, and `CC(C)(C)c1ccc(CSc2cnn(C(C)(C)C)c(=O)c2Cl)cc1` ? no

Okay, and `CC(C)CBr` ? no

Okay, and `Cl/C=C\CCl` ? no
